Each entry below carries its reported pIC50.
biological target: EP2 receptor (Homo sapiens); construct: expressed in transfected cells; host or cells: CHO-K1 cells (ATCC), transient transfection with FuGENE 6; assay: EP2 potency assay (cAMP TR-FRET, LANCE Ultra cAMP kit) in transfected CHO-K1 cells stimulated with PGE2 at EC80; type: cell-based; settings: Table (V), EP2 antagonism, CHO-K1 cells expressing EP2, PGE2 at EC80
Sequence (P43116 whole entry): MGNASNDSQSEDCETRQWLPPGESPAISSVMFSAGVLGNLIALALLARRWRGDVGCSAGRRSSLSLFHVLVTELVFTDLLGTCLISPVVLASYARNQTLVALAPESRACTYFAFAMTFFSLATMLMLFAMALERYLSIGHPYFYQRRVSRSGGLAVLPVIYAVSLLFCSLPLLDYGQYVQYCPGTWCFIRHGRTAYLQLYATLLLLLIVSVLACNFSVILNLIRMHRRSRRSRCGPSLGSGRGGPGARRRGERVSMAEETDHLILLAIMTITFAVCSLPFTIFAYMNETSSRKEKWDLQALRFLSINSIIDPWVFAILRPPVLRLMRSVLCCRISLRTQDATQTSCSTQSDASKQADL
pIC50: −log10 of the molar value.

For orientation, consider the following solved cases.
| Sample Smiles | pIC50 |
| --- | --- |
| Cc1nc(=O)[nH]c(C)c1CN1CCOc2c(Cl)cc(-n3ccc4cc(F)ccc43)cc2C1 | 6.00 to 6.30 |
| Nc1ncc(CN2CCOc3c(Cl)cc(-n4ccc5cc(F)ccc54)cc3C2)c(=O)[nH]1 | < 5.30 |
| N#Cc1ncc(CN2CCOc3c(Cl)cc(-n4ccc5cc(F)ccc54)cc3C2)cn1 | 6.00 to 6.30 |

Request: Sample COc1ncc(CN2CCOc3c(Cl)cc(-n4cnc5cc(F)ccc54)cc3C2)cn1 — what was its pIC50?
Response: 6.00 to 6.30

Request: What would you report for Fc1ccc2c(ccn2-c2cc(Cl)c3c(c2)CN(Cc2cnc(C4=NCCN4)nc2)CCO3)c1 ?
Response: < 5.30

Request: Also need COc1ncc(CN2CCOc3c(Cl)cc(-c4coc5c(F)c(F)ccc45)cc3C2)cn1 , thanks.
Response: 6.30 to 7.00

Request: And what about the compound COc1ncc(CN2CCOc3c(Cl)cc(N4CCN(C)c5cc(F)ccc54)cc3C2)cn1 ?
Response: < 5.30

Request: Try Fc1ccc2c(ccn2-c2cc(Cl)c3c(c2)CN(Cc2cnc4[nH]ccc4c2)CCO3)c1 next.
Response: 6.30 to 7.00
